- PROTOCOL_SUMMARY: in vitro
- REPORTED_CONDITIONS: human, CC50, HeLa cell monolayers; 24 h incubation; WST-1
Assign CC50 to each entry below.
Numbers only, in µM.

{"columns": ["SMILES_STRING", "QUANTITY_MEASURED", "ENDPOINT_UNIT", "RECORDED_RESULT"],
 "data": [
  ["CC[C@@]1([C@@H]2O[C@@H]([C@H]3O[C@@](O)(CO)[C@H](C)C[C@@H]3C)C[C@@H]2C)CC[C@H]([C@]2(C)CC[C@]3(C[C@H](O)[C@@H](C)[C@@H]([C@@H](C)[C@@H](OC)[C@H](C)C(=O)O)O3)O2)O1", "CC50", "µM", 23]
]}

Next:
Qu. Query: CC50; subject: C/C=C/[C@H]1O[C@@](O)([C@@H](C)[C@H](O)[C@H](C)[C@H]2OC(=O)/C(OC)=C/C(C)=C/[C@@H](C)[C@@H](O)[C@@H](CC)[C@@H](O)[C@H](C)C/C(C)=C/C=C/[C@@H]2OC)C[C@@H](O[C@H]2C[C@@H](O)[C@H](OC(N)=O)[C@@H](C)O2)[C@@H]1C
Ans. 13.5

The reported measurements were obtained from paper PMC9533862.
